All values here come from PubChem BioAssay AID1259407.

System: CCRIS mutagenicity, Ames/micronucleus/aberration tests
protocol.description: CCRIS mutagenicity studies
measurement.parameters: Test System: AMES SALMONELLA TYPHIMURIUM; Strain/Indicator: TA98; Metabolic Activation: NONE; Method: STANDARD PLATE
Active and inactive are the calls of the source. The rule behind the calls is not given here.
readout: mutagenic call

molecule	mutagenic call
Nc1ccccc1	inactive; negative
C=CCc1ccccc1OCC(O)CNC(C)C (stereo unspecified)	inactive; negative
O=C(c1ccccc1)n1ncc(Cl)c(Cl)c1=O	inactive; negative
O=[N+]([O-])c1ccc2cc3ccccc3cc2c1	active; positive
C=C(C)C1Cc2c(cc(O)c3c(=O)c4ccccc4n(C)c23)O1 (stereo unspecified)	inactive; negative

Please state, for each entry, its recorded mutagenic call.
1. [Cl][Pt-2]([Cl])([Cl])([Cl])([Cl])[Cl]
2. O=Cc1ccc(COS(=O)(=O)O)o1
3. COC1=CC(=O)c2c(ncc3c4c([nH]c23)CCCC4)C1=O
4. Cc1ccc(N)cc1Cl
5. CN(C)c1ccc(NS(=O)(=O)c2cccc3cccnc23)cc1
6. CCC(CCC(C)=O)COC(=O)CCCCC(=O)O (stereo unspecified)
7. O=Nc1cccc(-c2ccccc2)c1
8. CCN(CC)c1ccc(N=Nc2ccc([N+](=O)[O-])cc2C#N)cc1

A)
active; positive
inactive; negative
active; positive
inactive; negative
inactive; negative
inactive; negative
active; positive
active; positive

Please state, for each entry, its recorded mutagenic call.
1. c1ccc([C@H]2N[C@@H]2c2ccccc2)cc1
2. O=C1c2cccc(S(=O)(=O)O)c2C(=O)c2cccc([N+](=O)[O-])c21
3. ClC/C=C/CCl

A)
1: inactive; negative; 2: active; positive; 3: active; positive

Please state, for each entry, its recorded mutagenic call.
1. CCOP(=O)(NC(C)C)Oc1ccccc1C(=O)OC(C)C (stereo unspecified)
2. CCC[C@]1(O)CC[C@H]2[C@@H]3CC[C@H]4CC(=O)C[C@H](C)[C@]4(C)[C@H]3CC[C@@]21C
3. CC(C)(C)NC[C@H](O)COc1ccc(O)cc1C1CCCC1
4. Nc1ccc(Sc2ccc([N+](=O)[O-])cc2)cc1
5. O.[Al+3].[Al+3].[Na+].[Na+].[O-2].[O-2].[O-2].[O-2].[O-2].[O-2].[Si+4]
6. Cn1c([N+](=O)[O-])nc2ccccc21
7. Cn1c2ccccc2c2nn[n+]([O-])c(C(=O)OCCCl)c21

A)
1: active; positive; 2: inactive; negative; 3: inactive; negative; 4: active; positive; 5: inactive; negative; 6: active; positive; 7: active; positive

Please state, for each entry, its recorded mutagenic call.
1. Cc1occc(=O)c1O
2. CN(C)c1ccc(/C=C/c2ccc([N+](=O)[O-])cc2)cc1
3. CC12CCC=C(C=O)C1(C=O)C2 (stereo unspecified)

A)
1: inactive; negative; 2: inactive; negative; 3: active; positive

* * *

System: CCRIS mutagenicity, Ames/micronucleus/aberration tests
protocol.description: CCRIS mutagenicity studies
measurement.parameters: Test System: AMES SALMONELLA TYPHIMURIUM; Strain/Indicator: TA98; Metabolic Activation: S-9; Method: STANDARD PLATE
Active and inactive are the calls of the source. No rule for the calls is given here.
Just give me one of these, please: y (active), n (inactive)

Consider the worked cases shown below.
smiles.text	label
CNNCc1ccc(C(=O)NC(C)C)cc1	n
N#Cc1cccc(/C=C\c2ccc([N+](=O)[O-])cc2)c1	y
CNC(=O)c1c(N(C)N=O)ncn1C	n

Q) Fill in: this test's call for NC(=Nc1ccccc1)Nc1ccccc1 is ___
A) n

Q) Fill in: this test's call for CNc1ncn(C)c1C(=O)N(C)N=O is ___
A) n

Q) Fill in: this test's call for O=[N+]([O-])c1ccc2nscc2c1 is ___
A) y

Q) Fill in: this test's call for CCCCCCCCCc1ccccc1Oc1ccccc1CCCCCCCCC is ___
A) n

Q) Fill in: this test's call for O=[N+]([O-])c1cccc2nscc12 is ___
A) y

Q) Fill in: this test's call for CN(C)P(=O)(N(C)C)N(C)C is ___
A) n
